# test-name: GT localization in healthy versus 4T1 tumor bearing lung tissue
# Assay type: in vivo, BALB/c mice
# conditions-used: female, BALB/c, mouse, lung/plasma, intravenous, 1 hour after DcNP, 4T1 tumor bearing mice; read-out: Lung/Plasma Ratio
quantity-measured: Kp at 1 h

>>> endpoint_value("CC(=O)O[C@H]1C(=O)[C@@]2(C)[C@H]([C@H](OC(=O)c3ccccc3)[C@]3(O)C[C@H](OC(=O)[C@H](O)[C@@H](NC(=O)c4ccccc4)c4ccccc4)C(C)=C1C3(C)C)[C@]1(OC(C)=O)CO[C@@H]1C[C@@H]2O")
0.4
>>> endpoint_value("Nc1ccn([C@@H]2O[C@H](CO)[C@@H](O)C2(F)F)c(=O)n1")
0.2
